experimental_target: UniProt P30559
Sequence (whole entry): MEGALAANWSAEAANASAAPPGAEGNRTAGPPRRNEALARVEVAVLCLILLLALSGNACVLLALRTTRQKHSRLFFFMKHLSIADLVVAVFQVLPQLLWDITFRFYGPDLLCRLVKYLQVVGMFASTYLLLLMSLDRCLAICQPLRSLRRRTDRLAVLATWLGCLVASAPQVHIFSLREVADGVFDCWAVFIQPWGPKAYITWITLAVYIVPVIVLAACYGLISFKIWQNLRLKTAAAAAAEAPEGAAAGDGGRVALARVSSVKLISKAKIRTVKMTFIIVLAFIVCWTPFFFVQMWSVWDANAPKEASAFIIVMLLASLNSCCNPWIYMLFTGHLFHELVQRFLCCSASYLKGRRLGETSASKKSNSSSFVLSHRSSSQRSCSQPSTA
measurement_protocol: Agonist activity at human OTR expressed in CHO cells assessed as increase in calcium flux after 60 to 120 mins by fluo-4 dye based FLIPR assay relative to control
Assay type: functional, cell-based
*1 amine or outer side, *2 acyl side, *3 side chain or, on linkers, in order; H or OH if unused. Where a SMILES comes first, the peptide text is derived from it. Bridges are numbered along the chain shown (N, C = ends). [ ]: non-standard residue; d: D form. The star is where a group is joined. Cysteamide = C(CS[*:3])N[*:1]; Pyrrolidide = C1CCN(*)C1; Mpa = O=C(O)CCS
property_measured: Efficacy (%)

These recorded examples may help you get a feel for the data.
compound: CC[C@H](C)[C@@H]1NC(=O)[C@H](Cc2ccc(O)cc2)NC(=O)CCSSC[C@@H](C(=O)N2CCC[C@H]2C(=O)N[C@@H](CC(C)C)C(=O)NCC(N)=O)NC(=O)[C@H](CC(N)=O)NC(=O)[C@H](CCC(N)=O)NC1=O
Efficacy, %: 106
--
compound: CC[C@H](C)[C@@H]1NC(=O)[C@H](Cc2ccc(O)cc2)NC(=O)[C@@H](N)CSSC[C@@H](C(=O)N2CCC[C@H]2C(=O)N[C@@H](CC(C)C)C(=O)NCC(N)=O)NC(=O)[C@H](CC(N)=O)NC(=O)[C@H](CCC(N)=O)NC1=O [OXYTOCIN]
Efficacy, %: 102

A. CC[C@H](C)[C@@H]1NC(=O)[C@H](Cc2ccc(O)cc2)NC(=O)CCSSC[C@@H](C(=O)N2CCCC2)NC(=O)[C@H](CC(N)=O)NC(=O)[C@H](CCC(N)=O)NC1=O ([Mpa]YIQNC-Pyrrolidide; disulfide 1-6)
B. CC[C@H](C)[C@@H]1NC(=O)[C@H](Cc2ccc(O)cc2)NC(=O)CCSSCCNC(=O)[C@H](CC(N)=O)NC(=O)[C@H](CCC(N)=O)NC1=O ([Mpa]YIQN-Cysteamide; disulfide 1-C)
Looking at A and B , which one comes out lower in Efficacy terms? Give the label under which the chosen entry appears. B

Data provenance: ChEMBL document CHEMBL4184101
